target_entity: T1, recombinant cynomolgous IL-23 (cynomolgous)
T1 chain 1: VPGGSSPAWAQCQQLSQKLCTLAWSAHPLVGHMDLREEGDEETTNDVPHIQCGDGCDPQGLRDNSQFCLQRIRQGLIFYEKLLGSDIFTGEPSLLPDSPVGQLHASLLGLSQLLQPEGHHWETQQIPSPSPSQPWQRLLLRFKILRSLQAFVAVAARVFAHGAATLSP
T1 chain 2: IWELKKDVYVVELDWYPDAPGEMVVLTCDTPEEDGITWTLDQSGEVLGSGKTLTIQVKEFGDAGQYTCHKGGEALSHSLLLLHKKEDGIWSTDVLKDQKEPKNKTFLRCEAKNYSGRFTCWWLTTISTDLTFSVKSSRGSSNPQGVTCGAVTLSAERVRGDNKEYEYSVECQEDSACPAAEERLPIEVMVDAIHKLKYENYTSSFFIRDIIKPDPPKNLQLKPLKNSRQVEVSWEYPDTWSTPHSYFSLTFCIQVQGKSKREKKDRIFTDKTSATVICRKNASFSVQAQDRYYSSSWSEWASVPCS
assay_summary: cell-based or functional assay
experimental_readout: IC50 (pM), STAT-luciferase assay
Please reply with the bare figure in pM and do not write the unit itself.

Below, each entry is followed by its recorded IC50 (pM), STAT-luciferase assay result.
binder	experimental_readout	unit_spec	result
Antibody B (antibody, V domains shown, also called VH9/VL9) VH: QVQLQESGPGLVKPSQTLSLTCTVSGGSISSGGYYWSWIRQHPGKGLEWIGHIHYSGNTYYNPSLKSRVTISVDTSKNQFSLKLSSVTAADTAVYYCAKNRGFYYGMDVWGQGTTVTVSS VL: DIQMTQSPSSVSASVGDRVTITCRASQVISSWLAWYQQKPGKAPSLLIYAASSLQSGVPSRFSGSVSGTDFTLTISSLQPEDFATYYCQQANSFPFTFGPGTKVDFK	IC50 (pM), STAT-luciferase assay	pM	130
Antibody K (antibody, V domains shown) VH: EVQLVESGGGLVQPGGSLRLSCVVSGFTFSSFSMNWVRQAPGKGLEWVSYISSRSSTIYYADSVKGRFTISRDNAKNSLYLQMNSLRDEDTAVYYCARRIAAAGPWGYYYAMDVWGQGTTVTVSS VL: QPELTQPPSASASLGASVTLTCTLSSGYSDYKVDWYQLRPGKGPRFVMRVGTGGTVGSKGEGIPDRFSVLGSGLNRSLTIKNIQEEDESDYHCGADHGSGSNFVYVFGTGTKVTVL	IC50 (pM), STAT-luciferase assay	pM	61

Consider the binder Antibody A (antibody, V domains shown) VH: QVQLQESGPGLVKPSQTLSLTCTVSGGSISSGGYYWSWIRQHPGKGLEWIGYIYYSGSTYYNPSLKSRVTMSVDTSKNQFSLKLSSVTAADTAVYYCAKNRGFYYGMDVWGQGTTVTVSS VL: DIQLTQSPSSVSASVGDRVTITCRASQVISSWFAWYQQKPGKAPNLLIYAASSLQSGVPSRFSGSGSGTDFTLTISSLQPADFATYFCQQANSFPFTFGPGTKVDVK and give its measured IC50 (pM), STAT-luciferase assay.
379
